The reported measurements were obtained from PubChem BioAssay AID588664.

Molecular target: Tyrosine-protein kinase ABL1 (Homo sapiens) + Ras and Rab interactor 1 (Homo sapiens) (UniProt P00519+Q13671)
Sequence (P00519 whole entry, looked up): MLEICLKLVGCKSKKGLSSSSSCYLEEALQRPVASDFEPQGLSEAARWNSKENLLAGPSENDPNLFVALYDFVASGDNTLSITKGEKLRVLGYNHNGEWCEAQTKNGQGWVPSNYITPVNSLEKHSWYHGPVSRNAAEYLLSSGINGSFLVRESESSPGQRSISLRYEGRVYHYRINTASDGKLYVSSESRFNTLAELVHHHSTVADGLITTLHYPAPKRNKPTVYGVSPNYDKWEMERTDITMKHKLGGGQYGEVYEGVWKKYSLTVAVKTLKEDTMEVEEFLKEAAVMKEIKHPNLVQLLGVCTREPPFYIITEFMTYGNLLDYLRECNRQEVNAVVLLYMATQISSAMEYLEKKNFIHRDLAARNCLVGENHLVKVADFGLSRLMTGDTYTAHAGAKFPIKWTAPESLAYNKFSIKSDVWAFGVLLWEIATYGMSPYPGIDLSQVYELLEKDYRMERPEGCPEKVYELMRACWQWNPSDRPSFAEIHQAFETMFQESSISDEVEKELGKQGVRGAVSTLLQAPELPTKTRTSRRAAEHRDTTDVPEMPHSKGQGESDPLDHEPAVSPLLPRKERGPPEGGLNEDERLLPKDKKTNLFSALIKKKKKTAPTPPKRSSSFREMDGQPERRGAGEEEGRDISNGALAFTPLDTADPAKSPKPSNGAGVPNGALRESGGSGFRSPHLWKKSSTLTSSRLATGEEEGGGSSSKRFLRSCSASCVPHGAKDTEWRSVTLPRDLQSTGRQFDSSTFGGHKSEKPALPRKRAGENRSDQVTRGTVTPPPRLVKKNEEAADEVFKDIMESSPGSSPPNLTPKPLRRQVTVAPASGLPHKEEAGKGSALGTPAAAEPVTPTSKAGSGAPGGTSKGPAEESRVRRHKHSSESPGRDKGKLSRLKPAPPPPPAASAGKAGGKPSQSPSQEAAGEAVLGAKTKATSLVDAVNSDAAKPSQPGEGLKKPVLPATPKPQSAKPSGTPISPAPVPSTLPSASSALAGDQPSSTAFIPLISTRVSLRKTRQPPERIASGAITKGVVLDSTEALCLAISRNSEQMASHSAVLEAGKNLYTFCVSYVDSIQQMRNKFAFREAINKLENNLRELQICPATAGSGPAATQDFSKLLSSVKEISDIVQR
Sequence (Q13671 whole entry, looked up): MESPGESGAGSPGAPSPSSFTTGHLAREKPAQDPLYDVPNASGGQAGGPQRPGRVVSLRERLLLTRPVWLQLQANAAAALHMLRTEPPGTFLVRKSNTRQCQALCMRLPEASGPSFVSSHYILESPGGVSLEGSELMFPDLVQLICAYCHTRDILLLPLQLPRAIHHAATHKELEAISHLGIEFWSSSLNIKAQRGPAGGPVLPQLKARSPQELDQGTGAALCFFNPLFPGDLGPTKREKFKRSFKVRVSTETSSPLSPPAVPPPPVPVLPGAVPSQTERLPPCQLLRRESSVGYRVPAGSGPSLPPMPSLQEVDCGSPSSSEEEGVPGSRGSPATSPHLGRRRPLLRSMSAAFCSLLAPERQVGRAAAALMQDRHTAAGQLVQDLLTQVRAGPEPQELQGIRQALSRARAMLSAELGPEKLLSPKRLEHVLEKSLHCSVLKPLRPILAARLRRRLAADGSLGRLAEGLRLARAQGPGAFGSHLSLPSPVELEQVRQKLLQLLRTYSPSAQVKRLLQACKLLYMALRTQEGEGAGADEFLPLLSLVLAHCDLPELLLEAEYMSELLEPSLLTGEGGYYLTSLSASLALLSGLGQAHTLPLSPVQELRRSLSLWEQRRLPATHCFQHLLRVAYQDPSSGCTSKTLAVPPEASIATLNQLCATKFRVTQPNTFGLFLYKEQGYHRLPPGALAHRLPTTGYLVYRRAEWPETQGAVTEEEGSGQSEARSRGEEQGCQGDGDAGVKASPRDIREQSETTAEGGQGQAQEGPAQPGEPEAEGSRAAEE
Assay: inhibitors of Rin1-Abl protein binding, primary screen, biochemical, TR-FRET (AID 588664)
Settings: at 7.35 µM
Among all 360,000 compounds or so, about 1,400 (0.39%) were called active. Rule as the data show it: active = inhibition above about 5% (passing the limit was not always enough); inactive = the rest. Shown is part of a subset that was picked to be rich in actives.
In this exercise, the only acceptable responses are active, inactive

Below, 5 compounds whose answers are already recorded.
COc1cc2c(cc1O)C(SC)=NC(C)(C)C2
inactive
CCOC(=O)C1=C(COC(=O)[C@H](C)NS(=O)(=O)c2ccccc2F)NC(=O)NC1C (stereo not given in full)
inactive
COc1ccc(NC(=O)C(C)N2c3cccc4cccc(c34)S2(=O)=O)c(OC)c1 (stereo not given)
inactive
CN(C(=O)c1ccc(NC(=O)Cc2cccc(NC(=O)C3CCN(C(=O)c4ccccc4)CC3)c2)cc1)C1CC1
active
C[C@@H]1CN([C@@H](C)CO)S(=O)(=O)c2ccc(-c3ccc(C(=O)N(C)C)cc3)cc2O[C@@H]1CN(C)Cc1ccccc1C(=O)O
inactive

Query :: Each compound tested received a call. Report the one for `Fc1ccc(-c2ccc(CNCc3ccccn3)o2)cc1Cl` .
Result :: inactive

Query :: Each compound tested received a call. Report the one for `O=C(Oc1c(-c2ccco2)oc2ccccc2c1=O)c1cccnc1` .
Result :: inactive

Query :: Each compound tested received a call. Report the one for `O=C(CCN1C(=O)[C@H]2CC=CC[C@H]2C1=O)NCc1nc(-c2ccccc2)no1` .
Result :: inactive

Query :: Each compound tested received a call. Report the one for `CCOc1ccc(S(=O)(=O)N2CCC(C(=O)OCc3ccc(OC)cc3)CC2)cc1` .
Result :: inactive

Query :: Each compound tested received a call. Report the one for `CN(C(=O)c1cccc(NC(=O)Cc2ccc(NC(=O)C3CCN(C(=O)C4CCCCC4)CC3)cc2)c1)C1CCC1` .
Result :: inactive
